Target: nucleocapsid protein of the SARS-CoV-2 virus (N protein) (SARS-CoV-2), P0DTC9
Test: SPR (BIACORE); Peptide SEQ ID NO: 2
property: Kd (nM)
Answers are plain numbers, in nM.

Ask | So what does the record say about Kd for RVTQMNLNDRLASLYDKV (modifications not checked) [Peptide SEQ ID NO: 2] ?
Reply | 523

Where do these numbers come from? They come from patent US20250282828A1.
